- Tested on: Staphylococcus aureus
- Assay details: Antibacterial activity against Staphylococcus aureus ATCC 25923 assessed as reduction in bacterial cell growth measured for 18 hrs by Mueller-Hinton broth based two-fold serial dilution method
- Format: functional
Square brackets hold non-standard residues; d marks the D form. Peptide text beside a SMILES is read from it. * marks the point of attachment. NMeI = CC[C@H](C)[C@H](NC)C(=O)O; Tridecanoyl = CCCCCCCCCCCCC(=O)*; NMeL = CN[C@@H](CC(C)C)C(=O)O; Undecanoyl = CCCCCCCCCCC(=O)*; NMeK = CN[C@@H](CCCCN)C(=O)O
Assay readout: MIC (µM)
Express it in µM; write the number only.

Query: Dear colleague, I am looking for the recorded MIC of the following compound: CCCCCCCCCCC(=O)NCC(=O)N[C@@H](CC(C)C)C(=O)N[C@@H](CC(C)C)C(=O)N(C)[C@@H](CCCCN)C(=O)N[C@@H](CCCNC(=N)N)C(=O)N[C@H](C(=O)N(C)[C@@H](CCCCN)C(=O)N[C@H](C(=O)N[C@@H](CC(C)C)C(=O)N[C@@H](CC(C)C)C(N)=O)[C@@H](C)O)[C@@H](C)CC (Undecanoyl-GLL[NMeK]RI[NMeK]TLL-NH2)
Response: 32

Query: Next up: CCCCCCCCCCCCC(=O)NCC(=O)N[C@@H](CC(C)C)C(=O)N(C)[C@@H](CC(C)C)C(=O)N[C@@H](CCCCN)C(=O)N[C@@H](CCCNC(=N)N)C(=O)N(C)[C@H](C(=O)N[C@@H](CCCCN)C(=O)N[C@H](C(=O)N[C@@H](CC(C)C)C(=O)N[C@@H](CC(C)C)C(N)=O)[C@@H](C)O)[C@@H](C)CC (Tridecanoyl-GL[NMeL]KR[NMeI]KTLL-NH2)
Response: 4

Query: And the next one, CCCCCCCCCCCCC(=O)NCC(=O)N[C@@H](CC(C)C)C(=O)N[C@@H](CC(C)C)C(=O)N(C)[C@@H](CCCCN)C(=O)N[C@@H](CCCNC(=N)N)C(=O)N[C@H](C(=O)N(C)[C@@H](CCCCN)C(=O)N[C@H](C(=O)N[C@@H](CC(C)C)C(=O)N[C@@H](CC(C)C)C(N)=O)[C@@H](C)O)[C@@H](C)CC (Tridecanoyl-GLL[NMeK]RI[NMeK]TLL-NH2) ?
Response: 8

----------
- Assay details: Hemolytic activity in human RBC
- Format: toxicity, cell-based, Erythrocyte
- Condition summary: red blood cells
Square brackets hold non-standard residues; d marks the D form. Peptide text beside a SMILES is read from it. 2Nal = N[C@@H](Cc1ccc2ccccc2c1)C(=O)O; hIle = CC[C@H](C)C[C@H](N)C(=O)O; Cha = N[C@@H](CC1CCCCC1)C(=O)O
Entries and their measured HC50 follow.
# value in µM; strip the unit string

Before answering, review these 4 worked examples.
Molecule: CC(C)C[C@H](NC(=O)[C@H](CC(C)C)NC(=O)[C@H](CCCCN)NC(=O)[C@H](CCCCN)NC(=O)[C@H](Cc1ccc2ccccc2c1)NC(=O)[C@H](CCCNC(=N)N)NC(=O)[C@H](CCCCN)NC(=O)[C@H](CC(C)C)NC(=O)[C@H](CCCCN)NC(=O)CN)C(N)=O (H-GKLKR[2Nal]KKLL-NH2)
HC50 / µM: 50.1
//
Molecule: CC(C)C[C@H](NC(=O)CN)C(=O)N[C@@H](CC(C)C)C(=O)N[C@@H](CCCCN)C(=O)N[C@@H](CCCCN)C(=O)N[C@@H](Cc1ccc2ccccc2c1)C(=O)N[C@@H](CCCCN)C(=O)N[C@H](C(=O)N[C@@H](CC(C)C)C(=O)N[C@@H](CC1CCCCC1)C(N)=O)[C@@H](C)O (H-GLLKK[2Nal]KTL[Cha]-NH2)
HC50 / µM: 26.6
//
Molecule: CC[C@H](C)[C@H](NC(=O)[C@@H](NC(=O)[C@H](CCCCN)NC(=O)[C@H](CC(C)C)NC(=O)[C@H](CC(C)C)NC(=O)CN)C(C)C)C(=O)N[C@@H](CCCCN)C(=O)N[C@H](C(=O)N[C@@H](CC(C)C)C(=O)N[C@@H](CC(C)C)C(N)=O)[C@@H](C)O (H-GLLKVIKTLL-NH2)
HC50 / µM: 54.7
//
Molecule: CC[C@H](C)C[C@H](NC(=O)[C@H](CCCNC(=N)N)NC(=O)[C@H](CCCCN)NC(=O)[C@H](CC(C)C)NC(=O)[C@H](CC1CCCCC1)NC(=O)CN)C(=O)N[C@@H](CCCCN)C(=O)N[C@H](C(=O)N[C@@H](CC(C)C)C(=O)N[C@@H](CC1CCCCC1)C(N)=O)[C@@H](C)O (H-G[Cha]LKR[hIle]KTL[Cha]-NH2)
HC50 / µM: 31.2

Query: What does the data say about its HC50? Entry: CC[C@H](C)[C@H](NC(=O)[C@H](CCCNC(=N)N)NC(=O)[C@H](CCCCN)NC(=O)[C@H](CC(C)C)NC(=O)[C@H](CC(C)C)NC(=O)CN)C(=O)N[C@@H](CCCCN)C(=O)N[C@@H](CCCCN)C(=O)N[C@@H](CC(C)C)C(=O)N[C@@H](CC1CCCCC1)C(N)=O (H-GLLKRIKKL[Cha]-NH2)
Response: 12.4

----------
- System: Erythrocyte
- Assay details: Hemolytic activity in mouse RBC
- Type: toxicity, cell-based
Numbered stars: 1 amine (or outer) side, 2 acyl side, 3 side chain; on linkers, the order of the positions; unused ones are H or OH. Square brackets hold non-standard residues; d marks the D form. Peptide text beside a SMILES is read from it. X2 = CCC(C)N(CC(=O)[*:2])[*:1]; NBuGly = CCCCNCC(=O)O
Overview of reported HC10 across a group of compounds:

Compound: CCC(C)NCC(=O)N[C@@H](CC(C)C)C(=O)N[C@@H](CC(C)C)C(=O)N[C@@H](CCCCN)C(=O)N[C@@H](CCCNC(=N)N)C(=O)N[C@H](C(=O)N[C@@H](CCCCN)C(=O)N[C@H](C(=O)N[C@@H](CC(C)C)C(=O)N[C@@H](CC(C)C)C(N)=O)[C@@H](C)O)[C@@H](C)CC (some centres not stated) (H-[X2]LLKRIKTLL-NH2)
System tested: Erythrocyte
HC10: > 50 µM

Kindly review the next compound as well.
Query: Which HC10 value belongs to CCCCNCC(=O)N[C@@H](CC(C)C)C(=O)N[C@@H](CC(C)C)C(=O)N[C@@H](CCCCN)C(=O)N[C@@H](CCCNC(=N)N)C(=O)N[C@H](C(=O)N[C@@H](CCCCN)C(=O)N[C@H](C(=O)N[C@@H](CC(C)C)C(=O)N[C@@H](CC(C)C)C(N)=O)[C@@H](C)O)[C@@H](C)CC (H-[NBuGly]LLKRIKTLL-NH2) ?
Response: > 50 µM

----------
- Assay details: Hemolytic activity in mouse Red blood cells incubated for 1 hr by microplate reader assay
- Type: toxicity, cell-based, Erythrocyte
- Condition summary: red blood cells
Square brackets hold non-standard residues; d marks the D form. Peptide text beside a SMILES is read from it. * marks the point of attachment. Pentadecanoyl = CCCCCCCCCCCCCCC(=O)*; NMeR = CN[C@@H](CCCNC(=N)N)C(=O)O; NMeI = CC[C@H](C)[C@H](NC)C(=O)O; Tridecanoyl = CCCCCCCCCCCCC(=O)*; NMeL = CN[C@@H](CC(C)C)C(=O)O; NMeK = CN[C@@H](CCCCN)C(=O)O
Assay readout: HC50 at 1 h
Write the numeric value and append its unit.

Query: Would you mind telling me what HC50 at 1 h value was observed for CCCCCCCCCCCCCCC(=O)NCC(=O)N[C@@H](CC(C)C)C(=O)N[C@@H](CC(C)C)C(=O)N(C)[C@@H](CCCCN)C(=O)N[C@@H](CCCNC(=N)N)C(=O)N[C@H](C(=O)N(C)[C@@H](CCCCN)C(=O)N[C@H](C(=O)N[C@@H](CC(C)C)C(=O)N[C@@H](CC(C)C)C(N)=O)[C@@H](C)O)[C@@H](C)CC (Pentadecanoyl-GLL[NMeK]RI[NMeK]TLL-NH2) ?
Response: 64 µM

Query: Now consider CCCCCCCCCCCCCCC(=O)NCC(=O)N[C@@H](CC(C)C)C(=O)N[C@@H](CC(C)C)C(=O)N[C@@H](CCCCN)C(=O)N(C)[C@@H](CCCNC(=N)N)C(=O)N[C@H](C(=O)N(C)[C@@H](CCCCN)C(=O)N[C@H](C(=O)N[C@@H](CC(C)C)C(=O)N[C@@H](CC(C)C)C(N)=O)[C@@H](C)O)[C@@H](C)CC (Pentadecanoyl-GLLK[NMeR]I[NMeK]TLL-NH2) and answer again.
Response: 64 µM

Query: Do the same for CCCCCCCCCCCCC(=O)NCC(=O)N[C@@H](CC(C)C)C(=O)N(C)[C@@H](CC(C)C)C(=O)N[C@@H](CCCCN)C(=O)N[C@@H](CCCNC(=N)N)C(=O)N(C)[C@H](C(=O)N[C@@H](CCCCN)C(=O)N[C@H](C(=O)N[C@@H](CC(C)C)C(=O)N[C@@H](CC(C)C)C(N)=O)[C@@H](C)O)[C@@H](C)CC (Tridecanoyl-GL[NMeL]KR[NMeI]KTLL-NH2) please
Response: 64 µM
